Some compounds, each annotated with its measured IC50.
# System: CNE
# Test Method Notes: Antitumor activity against human nasopharyngeal carcinoma CNE cell line
# Assay type: functional, cell-based
# Condition Info: Homo sapiens, CNE; read-out: IC50

For orientation, consider the following solved cases.
CC1(C)CCC[C@]2(C)c3cc(O)c(OCc4ccc(Cl)cc4)cc3CC[C@H]12; > 50 µg/mL
CC1(C)CCC[C@]2(C)c3cc(OCc4cccc([N+](=O)[O-])c4)c(O)cc3CC[C@H]12; 32.9 µg/mL
CC1(C)CCC[C@]2(C)c3cc(O)c(O)cc3C(=O)C[C@H]12; 13.5 µg/mL
CC1(C)CCC[C@]2(C)c3cc(OCc4cccc([N+](=O)[O-])c4)c(O)cc3CC[C@@H]12; > 50 µg/mL
COc1cc2c(cc1OC)[C@@]1(C)CCCC(C)(C)[C@H]1CC2; 4.5 µg/mL

[Q] Give the reported value of IC50 for this record: COc1cc2c(cc1OC)[C@@]1(C)CCCC(C)(C)[C@H]1C(=O)C2=O
[A] 5.6 µg/mL

[Q] Respond only with IC50 recorded for CC1(C)CCC[C@]2(C)c3cc(OCc4ccccc4F)c(O)cc3CC[C@@H]12
[A] > 50 µg/mL

[Q] Please list IC50 recorded for the compound CC1(C)CCC[C@]2(C)c3cc(O)c(O)cc3CC[C@H]12
[A] 3.6 µg/mL

[Q] Return IC50 for the following compound: CC1(C)CCC[C@]2(C)c3cc(O)c(OCc4ccccc4F)cc3CC[C@@H]12
[A] > 50 µg/mL

====

# Test system: CNE
# Test Method Notes: Antitumor activity against human nasopharyngeal carcinoma CNE cell line
# Type: functional, cell-based
# Condition Info: Homo sapiens, CNE; read-out: IC50
Labelling field: enter true if recorded IC50 is less than 20 µg/mL. Enter false if it equals or exceeds that cut-off.

Here's what some known entries look like.
CC1(C)CCC[C@]2(C)c3cc(O)c(O)cc3C(=O)C[C@@H]12; false
CC1(C)CCC[C@]2(C)c3cc(O)c(OCc4cccc([N+](=O)[O-])c4)cc3CC[C@H]12; false
CC1(C)CCC[C@]2(C)c3cc(O)c(O)cc3C(=O)C(=O)[C@H]12; true

[Q] Decide: IC50 of COc1cc2c(cc1OC)[C@@]1(C)CCCC(C)(C)[C@H]1CC2=O strictly below 20 µg/mL?
[A] true

[Q] Is IC50 of COc1cc2c(cc1OC)[C@@]1(C)CCCC(C)(C)[C@@H]1CC2=O strictly below 20 µg/mL?
[A] false

[Q] Consider CC1(C)CCC[C@]2(C)c3cc(O)c(OCc4cccc([N+](=O)[O-])c4)cc3CC[C@@H]12 . Does its IC50 lie strictly below 20 µg/mL?
[A] false

[Q] I'd appreciate it if you could check whether CC1(C)CCC[C@]2(C)c3cc(O)c(OCc4ccccc4F)cc3CC[C@H]12 has IC50 smaller than 20 µg/mL.
[A] true

[Q] # check: IC50 < 20 µg/mL for CC1(C)CCC[C@]2(C)c3cc(OCc4ccc(Cl)cc4)c(O)cc3CC[C@@H]12
[A] false

[Q] State whether 20 µg/mL exceeds IC50 recorded for CC1(C)CCC[C@]2(C)c3cc(O)c(OCc4ccc(Cl)cc4)cc3CC[C@@H]12 .
[A] false

[Q] Say whether its IC50 is strictly beneath 20 µg/mL. Entry: CC1(C)CCC[C@]2(C)c3cc(OCc4ccccc4F)c(O)cc3CC[C@H]12
[A] true

[Q] Answer whether the compound COc1cc2c(cc1OC)[C@@]1(C)CCCC(C)(C)[C@@H]1CC2 has IC50 strictly less than 20 µg/mL
[A] false

[Q] Lab note: IC50 threshold 20 µg/mL. Does this compound come in strictly under it? CC1(C)CCC[C@]2(C)c3cc(OCc4ccc(Cl)cc4)c(O)cc3CC[C@H]12
[A] false
